Data origin, for the record: patent US9539272B2

System: MCF-7 cells
Test: Cell growth and viability by trypan blue exclusion, MCF-7
Assay type: cell-based, human
Conditions: MCF-7, 72 hrs; 8 μM tubacin, 5 μM SAHA, […] doxorubicin, 100 μM etoposide, alone or plus 8 μM tubacin
ENDPOINT NAME: rate of cell growth

INSERT INTO results (compound, target, endpoint_name, assay_value) VALUES
  ('COc1cccc2c1C(=O)c1c(O)c3c(c(O)c1C2=O)C[C@@](O)(C(=O)CO)C[C@@H]3O[C@H]1C[C@H](N)[C@H](O)[C@H](C)O1', 'MCF-7 cells', 'rate of cell growth', 'markedly decreased'),
  ('O=C(CCCCCCC(=O)Nc1ccccc1)NO [SAHA, Suberoylanilide Hydroxamic Acid]', 'MCF-7 cells', 'rate of cell growth', 'markedly decreased'),
  ('COc1cc([C@@H]2c3cc4c(cc3[C@@H](O[C@@H]3O[C@@H]5CO[C@@H](C)O[C@H]5[C@H](O)[C@H]3O)[C@H]3COC(=O)[C@H]23)OCO4)cc(OC)c1O [etoposide]', 'MCF-7 cells', 'rate of cell growth', 'markedly decreased');
